These measurements were taken from patent US12077503B2.

system: Kochia (Kochia scoparia); assay: Test A postemergence; assay type: in vivo; settings: Bassia scoparia, post-emergence, 240 h, 125 g ai/ha, Postemergence; visual injury after approximately 10 d; 0 to 100 scale where 0 is no effect and 100 is complete control; read-out: Plant response rating, Kochia
Attribute: pest or weed control at 125 g/ha
QUANTITY_MEASURED: pest or weed control at 125 g/ha (%)

Cc1c(F)cccc1NC(=O)[C@H]1C(=O)N(C)C[C@@H]1c1cc(F)cc(C(F)(F)F)c1    40
Cc1cc([C@H]2CN(C)C(=O)[C@@H]2C(=O)Nc2ccccc2F)cc(C)c1Br    50
CN1CC[C@H](c2cccc(C(F)(F)F)c2)[C@@H](C(=O)Nc2ccccc2S(C)(=O)=O)C1=O    0
COc1cc(OC)cc([C@H]2CN(C)C(=O)[C@@H]2C(=O)Nc2ccccc2SC)c1    0
CSc1ccccc1NC(=O)[C@H]1C(=O)N(C)C[C@@H]1c1cc(F)cc(Cl)c1    40
Cc1ccc(NC(=O)[C@H]2C(=O)N(C)C[C@@H]2c2cc(F)cc(F)c2)cc1    0
COc1ccc([C@H]2CN(C)C(=O)[C@@H]2C(=O)Nc2ccccc2F)cc1C(F)(F)F    50
